This collection of values is drawn from patent US4530903A.

# tested_target: L-2-hydroxy-4-methylpentanoic acid-dehydrogenase (Weissella confusa)
# Construct: the cells harvesting by centrifugation, solubilizing the product in a suspension buffered to pH 7 and obtaining the enzyme from the extract; made in house; host or cells: Lactobacillus confusus DSM 20196 (natural producer, not recombinant)
# protocol_details: Dehydrogenation of 2-hydroxycarboxylic acids to 2-ketocarboxylic acids (Example 1), NADH formation at 340 nm
# Assay type: biochemical, Lactobacillus confusus
# condition_description: test concentration 1 mM substrate, same enzyme solution
# Description: In each case, there was measured the maximal initial reaction velocity Vmax and the KM value. […] In a corresponding manner, the enzymatic activity against other 2-hydroxycarboxylic acids was determined. The concentration of the corresponding 2-hydroxycarboxylic acids in the test was varied between 0.2 and a maximum of 100 millimoles. […] The relative activities (U/ml) set forth in Table 3 were measured at substrate-final concentrations of 1 millimole, 10 millimoles, and 100 millimoles. […]
Recorded log10 of relative activity, one value per entry.
// units: U/ml (pre-log); metric: relative activity; scale: log10

// solved cases for log10 of relative activity follow
CSCCC(O)C(=O)O (racemic)	-0.34
CC(C)CC(O)C(=O)O (racemic) [DL-2-Hydroxy-4-methylpentanoic acid]	1.22
CCCCC(O)C(=O)O (racemic) [DL-2-Hydroxyhexanoic acid]	0.92

Q. What value of log10 of relative activity has been reported for the following molecule? CCCC(O)C(=O)O (racemic) [DL-2-Hydroxypentanoic acid]
A. 0.79

Q. What value of log10 of relative activity has been reported for the following molecule? CC(C)C[C@H](O)C(=O)O [L-2-Hydroxy-4-methylpentanoic acid]
A. 1.45

* * *

# tested_target: L-2-hydroxy-4-methylpentanoic acid-dehydrogenase (Weissella confusa, UniProt P14295)
# Construct: the cells harvesting by centrifugation, solubilizing the product in a suspension buffered to pH 7 and obtaining the enzyme from the extract; made in house; host or cells: Lactobacillus confusus DSM 20196 (natural producer, not recombinant)
# Sequence (P14295 1-310): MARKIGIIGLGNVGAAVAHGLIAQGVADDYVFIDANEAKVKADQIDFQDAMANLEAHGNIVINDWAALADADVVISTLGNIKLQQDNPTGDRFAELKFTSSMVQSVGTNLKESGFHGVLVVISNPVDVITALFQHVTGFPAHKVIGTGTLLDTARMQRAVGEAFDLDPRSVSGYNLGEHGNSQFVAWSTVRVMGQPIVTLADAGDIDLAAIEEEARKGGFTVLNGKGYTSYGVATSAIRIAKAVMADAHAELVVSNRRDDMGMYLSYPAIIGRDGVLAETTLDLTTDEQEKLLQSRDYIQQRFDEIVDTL
# protocol_details: Reduction of 2-ketocarboxylic acids to L-2-hydroxycarboxylic acids (Example 2), NADH decrease at 340 nm
# Assay type: biochemical, Lactobacillus confusus
# condition_description: test concentration 10 mM substrate, same enzyme solution
observation_type: relative activity (U/ml)
Give just the number in U/ml; leave the unit off.

// solved cases for relative activity follow
CSCCC(=O)C(=O)O	53
CC(C)CC(=O)C(=O)O	144
CCCCC(=O)C(=O)O	103

Consider the additional compound presented here.
Q. What value of relative activity has been reported for the following compound? `CCCC(=O)C(=O)O`
A. 161

* * *

# tested_target: L-2-hydroxy-4-methylpentanoic acid-dehydrogenase (Weissella confusa, UniProt P14295)
# Construct: the cells harvesting by centrifugation, solubilizing the product in a suspension buffered to pH 7 and obtaining the enzyme from the extract; made in house; host or cells: Lactobacillus confusus DSM 20196 (natural producer, not recombinant)
# Sequence (P14295 1-310): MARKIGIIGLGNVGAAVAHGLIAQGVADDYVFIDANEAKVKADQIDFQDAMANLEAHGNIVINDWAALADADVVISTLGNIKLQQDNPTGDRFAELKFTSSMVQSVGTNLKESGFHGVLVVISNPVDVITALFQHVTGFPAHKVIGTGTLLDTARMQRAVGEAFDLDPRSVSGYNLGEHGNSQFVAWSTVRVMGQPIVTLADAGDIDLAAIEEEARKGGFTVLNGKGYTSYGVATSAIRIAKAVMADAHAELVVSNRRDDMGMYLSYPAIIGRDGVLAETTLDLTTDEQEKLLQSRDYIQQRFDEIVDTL
# protocol_details: Reduction of 2-ketocarboxylic acids to L-2-hydroxycarboxylic acids (Example 2), NADH decrease at 340 nm
# Assay type: biochemical, Lactobacillus confusus
# condition_description: test concentration 1 mM substrate, same enzyme solution
# Description: In each case, there was again measured the maximal beginning reaction velocity Vmax and the KM value. […] In a corresponding manner there was determined the enzyme activity against other 2-ketocarboxylic acids. The keto acid concentration in each case was varied in the range of 0.01 to a maximum of 10 millimoles. […] The relative activities (U/ml) stated in Table 5 were measured at substrate final concentrations of 0.1 millimoles, 1 millimole, and 10 millimoles. […]
observation_type: relative activity (U/ml)
Give just the number in U/ml; leave the unit off.

// solved cases for relative activity follow
CCCCC(=O)C(=O)O	301
CC(C)CC(=O)C(=O)O	259
CSCCC(=O)C(=O)O	93

Consider the additional compound presented here.
Q. What value of relative activity has been reported for the following compound? `CCCC(=O)C(=O)O`
A. 344
